System: biotinyl-Phe-oxazolone
Experiment: self-aminoacylation, catalytic enhancement (BFO) (fold over background); higher = more active; k-Seq, kA / k0A0; sequences stand for … in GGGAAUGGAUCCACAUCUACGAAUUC…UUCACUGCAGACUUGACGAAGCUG
Variants at the floor of the assay were thinned out.
Decide using self-aminoacylation: a value greater than or equal to 4 is 1.0, a smaller one is 0.0.

{"macromolecule sequence": "CCACUUCAAACAAUCGGUCCG [Fam1A.1 aminoacylation ribozyme variant]", "label value": 1.0}
{"macromolecule sequence": "ACACACUUCAAGCAACCGGUC [Fam1B.1 aminoacylation ribozyme variant]", "label value": 0.0}
{"macromolecule sequence": "ACACACUUCAAGCAAUCGGUC [Fam1B.1 aminoacylation ribozyme variant]", "label value": 1.0}
{"macromolecule sequence": "CCACACUACAAACAAUCGGUC [Fam1B.1 aminoacylation ribozyme variant]", "label value": 0.0}
{"macromolecule sequence": "UUACUCCAAACAAUCGGUCUG [Fam1A.1 aminoacylation ribozyme variant]", "label value": 0.0}
{"macromolecule sequence": "CCACAAUUCAAGCACUCGGUC [Fam1B.1 aminoacylation ribozyme variant]", "label value": 0.0}
{"macromolecule sequence": "AUUGCCCUUGUCAUCGAGUGA [Fam2.1 aminoacylation ribozyme variant]", "label value": 1.0}

---

Tested on: biotinyl-Met-oxazolone
Assay: self-aminoacylation, catalytic enhancement (BMO) (fold over background); higher = more active; k-Seq, kA / k0A0; sequences stand for … in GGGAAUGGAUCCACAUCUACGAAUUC…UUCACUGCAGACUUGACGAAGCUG
Fewer inactive variants are shown than the library holds.
Record Met whenever self-aminoacylation is at 1 or higher; record Not met when lower.

{"macromolecule sequence": "GUUCACCUAGGUCUUCGGGUG [Fam2.2 aminoacylation ribozyme variant]", "assay target": "biotinyl-Met-oxazolone", "label value": "Met"}
{"macromolecule sequence": "GCACACUUCAAGCAGUCGGUC [Fam1B.1 aminoacylation ribozyme variant]", "assay target": "biotinyl-Met-oxazolone", "label value": "Met"}
{"macromolecule sequence": "AAGUUUGCUAAUAGUCUUAAG [Fam3.1 aminoacylation ribozyme variant]", "assay target": "biotinyl-Met-oxazolone", "label value": "Met"}
{"macromolecule sequence": "CUACUUCCAACAAUUGGUCUG [Fam1A.1 aminoacylation ribozyme variant]", "assay target": "biotinyl-Met-oxazolone", "label value": "Not met"}
{"macromolecule sequence": "AUUACCAUGGUUAUCGAGUGA [Fam2.1 aminoacylation ribozyme variant]", "assay target": "biotinyl-Met-oxazolone", "label value": "Met"}
{"macromolecule sequence": "CCACCCUGCAAGCAAUCGGUC [Fam1B.1 aminoacylation ribozyme variant]", "assay target": "biotinyl-Met-oxazolone", "label value": "Met"}
{"macromolecule sequence": "AUUAUCCUGGUCAUGGAGUGA [Fam2.1 aminoacylation ribozyme variant]", "assay target": "biotinyl-Met-oxazolone", "label value": "Met"}
{"macromolecule sequence": "AAGUUUGCUUAUAGUCGCAAU [Fam3.1 aminoacylation ribozyme variant]", "assay target": "biotinyl-Met-oxazolone", "label value": "Met"}
{"macromolecule sequence": "AUUCAUCUAGGUCAUUGGGUG [Fam2.2 aminoacylation ribozyme variant]", "assay target": "biotinyl-Met-oxazolone", "label value": "Met"}
{"macromolecule sequence": "CCAGACUUCAAGCAAUCGGUC [Fam1B.1 aminoacylation ribozyme variant]", "assay target": "biotinyl-Met-oxazolone", "label value": "Met"}
{"macromolecule sequence": "CUUCUUCAAAAAAUCGGUCUG [Fam1A.1 aminoacylation ribozyme variant]", "assay target": "biotinyl-Met-oxazolone", "label value": "Not met"}
{"macromolecule sequence": "AAGUUUGCUAAUAGUCGCUCG [Fam3.1 aminoacylation ribozyme variant]", "assay target": "biotinyl-Met-oxazolone", "label value": "Not met"}
{"macromolecule sequence": "CAACACUUCAAGCAAACGGUC [Fam1B.1 aminoacylation ribozyme variant]", "assay target": "biotinyl-Met-oxazolone", "label value": "Not met"}
{"macromolecule sequence": "CUACUUCACAGAAUCGGUCUG [Fam1A.1 aminoacylation ribozyme variant]", "assay target": "biotinyl-Met-oxazolone", "label value": "Met"}
{"macromolecule sequence": "CUACUUCUAACAAUCGGUCCG [Fam1A.1 aminoacylation ribozyme variant]", "assay target": "biotinyl-Met-oxazolone", "label value": "Not met"}
{"macromolecule sequence": "AAGUUUGCUGCUAGUCGCAAG [Fam3.1 aminoacylation ribozyme variant]", "assay target": "biotinyl-Met-oxazolone", "label value": "Met"}
{"macromolecule sequence": "AUUCACCUAGGCCUUCGGGUG [Fam2.2 aminoacylation ribozyme variant]", "assay target": "biotinyl-Met-oxazolone", "label value": "Met"}

Data credit: the supplement of paper PMC9233669
